pKi by entry:
- run_description: Binding affinity for sigma-1 site over dopamine (D2) receptor in rat using [3H]spiperone as radioligand
pKi: −log10 of the molar value.
property_measured: pKi

- smiles_input: "O=C(OCCN1CCN(c2ccccc2)CC1)C1(c2ccccc2)CCCC1"
  property_measured: "pKi"
  value_operator: "<"
  recorded_result: 6.30
- smiles_input: "O=C(OCCN1CCC(c2ccccc2)CC1)C1(c2ccc([N+](=O)[O-])cc2)CCCC1"
  property_measured: "pKi"
  value_operator: "="
  recorded_result: 6.46
- smiles_input: "O=C(OCCN1CCN(c2ccccc2)CC1)C1(c2ccc([N+](=O)[O-])cc2)CCCC1"
  property_measured: "pKi"
  value_operator: "="
  recorded_result: 6.30
- smiles_input: "O=C(OCCCCN1CCC(c2ccccc2)CC1)C1(c2ccccc2)CCCC1"
  property_measured: "pKi"
  value_operator: "="
  recorded_result: 6.33
- smiles_input: "COc1ccc(C2(C(=O)OCCCN3CCC(c4ccccc4)CC3)CCCC2)cc1"
  property_measured: "pKi"
  value_operator: "="
  recorded_result: 6.00
- smiles_input: "N#Cc1ccc(C2(C(=O)OCCN3CCC(c4ccccc4)CC3)CCCC2)cc1"
  property_measured: "pKi"
  value_operator: "="
  recorded_result: 6.71
- smiles_input: "O=C(OCCN1CCC(c2ccccc2)CC1)C1(c2ccccc2)CCCC1"
  property_measured: "pKi"
  value_operator: "="
  recorded_result: 5.96
- smiles_input: "O=C(OCCN1CCN(c2ccccc2)CC1)C1(c2ccc(I)cc2)CCCC1"
  property_measured: "pKi"
  value_operator: "="
  recorded_result: 6.67
- smiles_input: "Cc1ccccc1NC(=N)Nc1ccccc1C"
  property_measured: "pKi"
  value_operator: "<"
  recorded_result: 5.30
- smiles_input: "O=C(OCCCN1CCC(c2ccccc2)CC1)C1(c2ccccc2)CCCC1"
  property_measured: "pKi"
  value_operator: "="
  recorded_result: 5.92

###

- study_target: Muscarinic acetylcholine receptor M2 (Rattus norvegicus)
- run_description: Binding affinity was measured as selectivity for sigma 1 site over muscarinic (M2) receptor at 10 uM in rat using [3H]QN as radioligand
pKi: −log10 of the molar value.
pKi by entry:

- smiles_input: "O=C(OCCCN1CCC(c2ccccc2)CC1)C1(c2ccccc2)CCCC1"
  pKi: 6.17
- smiles_input: "O=C(OCCN1CCC(c2ccccc2)CC1)C1(c2ccc([N+](=O)[O-])cc2)CCCC1"
  pKi: 5.77
- smiles_input: "Cc1ccccc1NC(=N)Nc1ccccc1C"
  pKi: 5.53

###

- study_target: Muscarinic acetylcholine receptor M2 (Rattus norvegicus, UniProt P10980)
- Sequence (P10980 whole entry): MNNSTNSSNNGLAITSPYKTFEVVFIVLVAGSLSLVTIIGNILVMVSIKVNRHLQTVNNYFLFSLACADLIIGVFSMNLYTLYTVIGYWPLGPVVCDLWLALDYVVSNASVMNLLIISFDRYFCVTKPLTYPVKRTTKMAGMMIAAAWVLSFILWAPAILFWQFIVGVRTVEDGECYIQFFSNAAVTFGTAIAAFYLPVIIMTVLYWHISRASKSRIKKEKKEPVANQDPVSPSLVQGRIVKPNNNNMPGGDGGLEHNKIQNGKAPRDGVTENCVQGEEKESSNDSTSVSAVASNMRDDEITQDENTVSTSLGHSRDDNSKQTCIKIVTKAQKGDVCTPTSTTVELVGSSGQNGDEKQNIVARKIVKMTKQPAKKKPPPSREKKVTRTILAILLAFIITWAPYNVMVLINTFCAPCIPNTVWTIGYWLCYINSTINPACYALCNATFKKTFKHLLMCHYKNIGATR
- run_description: Binding affinity was measured against muscarinic (M2) receptor at 10 uM in rat using [3H]QN as radioligand
pKi: −log10 of the molar value.
pKi by entry:

- molecule: "CC(C)=CCN1CC[C@]2(C)c3cc(O)ccc3C[C@H]1[C@H]2C (single isomer, unassigned) [(+)-PENTAZOCINE]"
  value_operator: "="
  pKi: 6.28
- molecule: "COc1ccc2c(c1)[C@]13CCCC[C@@H]1[C@H](C2)N(C)CC3"
  value_operator: "<"
  pKi: 5.00

###

- study_target: Sigma 2 receptor
- run_description: The compound was evaluated for affinity at sigma-2 site by inhibition of [3H]1,3-di(2-tolyl)guanidine (DTG) binding in guinea pig brain
- Parameters: species or system Cavia porcellus
pKi: −log10 of the molar value.
Cut-off 8 on pKi, inclusive. At or above means T; below means F.

- smiles_input: "O=C(OCCN1CCN(c2ccccc2)CC1)C1(c2ccccc2)CCCC1"
  category: "F"
- smiles_input: "O=C(OCCN1CCN(c2ccccc2)CC1)C1(c2ccc(I)cc2)CCCC1"
  category: "F"
- smiles_input: "O=C(OCCN1CCC(c2ccccc2)CC1)C1(c2ccc(I)cc2)CCCC1"
  category: "F"
- smiles_input: "O=C(OCCN1CCN(c2ccccc2)CC1)C1(c2ccc(Cl)cc2)CCCC1"
  category: "F"
- smiles_input: "COc1ccc(C2(C(=O)OCCCN3CCC(c4ccccc4)CC3)CCCC2)cc1"
  category: "T"
- smiles_input: "O=C(OCCCCCCN1CCC(c2ccccc2)CC1)C1(c2ccccc2)CCCC1"
  category: "T"
- smiles_input: "O=C(OCCCN1CCC(c2ccccc2)CC1)C1(c2ccc([N+](=O)[O-])cc2)CCCC1"
  category: "T"
- smiles_input: "COc1ccc(C2(C(=O)OCCN3CCC(c4ccccc4)CC3)CCCC2)cc1"
  category: "F"
- smiles_input: "O=C(OCCN1CCN(c2ccccc2)CC1)C1(c2ccc([N+](=O)[O-])cc2)CCCC1"
  category: "F"
- smiles_input: "O=C(OCCCN1CCC(c2ccccc2)CC1)C1(c2ccc(Cl)cc2)CCCC1"
  category: "T"
- smiles_input: "N#Cc1ccc(C2(C(=O)OCCN3CCC(c4ccccc4)CC3)CCCC2)cc1"
  category: "F"
- smiles_input: "O=C(OCCN1CCC(c2ccccc2)CC1)C1(c2ccc([N+](=O)[O-])cc2)CCCC1"
  category: "T"
- smiles_input: "O=C(OCCCCN1CCC(c2ccccc2)CC1)C1(c2ccccc2)CCCC1"
  category: "T"
- smiles_input: "O=C(OCCCCCN1CCC(c2ccccc2)CC1)C1(c2ccccc2)CCCC1"
  category: "T"
- smiles_input: "O=C(OCCCN1CCC(c2ccccc2)CC1)C1(c2ccccc2)CCCC1"
  category: "T"
- smiles_input: "O=C(OCCN1CCC(c2ccccc2)CC1)C1(c2ccccc2)CCCC1"
  category: "F"
- smiles_input: "O=C(OCCN1CCC(c2ccccc2)CC1)C1(c2ccc(Cl)cc2)CCCC1"
  category: "F"

Data origin, for the record: ChEMBL document CHEMBL1127555
